system: IFN-a/Jak1Tyk2; test: Co-stimulation assay in lysed whole blood: IFNa (JAK1/TYK2) stimulated STAT1 phosphorylation; assay type: cell-based; conditions: 20 min, lysed human whole blood, IFNa 100 ng/mL + GM-CSF 10 ng/mL, pSTAT1 by flow cytometry
pIC50: −log10 of the molar value.

{"columns": ["molecule", "pIC50"],
 "data": [
  ["CCOC(=O)c1nscc1Nc1cc(NC)n2ncc(C(=O)NCCOC)c2n1", "< 6.52"],
  ["[2H]C([2H])([2H])Nc1cc(Nc2cc(F)cc3c2OCCO3)nc2c(C(=O)NCC(C)(C)CO)cnn12", "> 7.00"],
  ["CNc1cc(Nc2cccn(C)c2=O)nc2c(C(=O)NC3CC(O)C3)cnn12 (centres unmarked)", "< 5.52"],
  ["[2H]C([2H])([2H])Nc1cc(Nc2cc(F)cc3c2OCCO3)nc2c(C(N)=O)cnn12", "> 7.00"],
  ["CNc1cc(Nc2cccn(-c3cc(C)n(C)n3)c2=O)nc2c(C(=O)NC3CC3)cnn12", "6.00 to 7.00"],
  ["CNc1cc(Nc2cccc3c2OCCC3)nc2c(C(=O)NC3CCC3)cnn12", "> 7.00"],
  ["CNc1cc(Nc2cccn(C)c2=O)nc2c(C(=O)NC3CC(C#N)C3)cnn12 (centres unmarked)", "6.00 to 7.00"],
  ["CNc1cc(Nc2cccn(-c3cccc(C)n3)c2=O)nc2c(C(=O)NC3CC(O)C3)cnn12 (centres unmarked)", "5.00 to 6.00"]
]}
